// provenance: ChEMBL document CHEMBL1140338

experiment: Binding affinity for alpha 1a adrenoceptor
property: pK
Numbers only.

>>> print(df.to_string())
                                   compound  property  recordedmeasurement
0  COC(=O)[C@H]1[C@H]2C[C@H]3c4[nH]c5ccccc5c4CCN3C[C@@H]2CC[C@@H]1O        pK                 6.85
1  COc1ccccc1N1CCN(CCCNc2c(C)c(=O)n(C)c(=O)n2C)CC1        pK                  9.2

For each listed entry, give its pK.
1. COc1cc2nc(N3CCN(C(=O)c4ccco4)[C@H]4CCCC[C@H]43)nc(N)c2cc1OC
2. COc1ccccc1N1CCN(CCN(C(=O)C2CCCCC2)c2ccccn2)CC1
3. COc1ccccc1N1CCN(CCCCN2C(=O)c3ccccc3C2=O)CC1
4. CC1=C(C(N)=O)[C@H](c2ccc([N+](=O)[O-])cc2)C(C(=O)NCCCCN2CCC(c3ccccc3)(c3ccccc3)CC2)=C(C)N1

result:
[7.92, 7.24, 8.7, 8.72]

For each listed entry, give its pK.
1. C[C@H](CN1CCN(c2cc(F)c(F)cc2F)CC1)N1C(=O)CC2(CCCC2)CC1=O
2. COc1cc2nc(N3CCN(C(=O)C4CCCO4)CC3)nc(N)c2cc1OC (stereo not given)
3. O=C(CCCN1CCC2(CC1)C(=O)NCN2c1ccccc1)c1ccc(F)cc1
4. COc1cccc(OC)c1OCCNCC1CSc2ccccc2O1 (stereo not given)
5. O=C(NC1CCN(CCc2c[nH]c3ccccc23)CC1)c1ccccc1
6. CCC1=C(C(N)=O)[C@H](c2ccc([N+](=O)[O-])cc2)C(C(=O)NCCCN2CCC(c3ccccc3)(c3ccccc3)CC2)=C(COCCN)N1

result:
[6.53, 8.2, 8.1, 9.7, 8.4, 9.19]

For each listed entry, give its pK.
1. COc1ccccc1N1CCN(CCCNC(=O)c2cccc3c(=O)c(C)c(-c4ccccc4)oc23)CC1
2. COc1cc2nc(N3CCN(C(=O)COc4c(OC)cccc4C(C)C)CC3)nc(N)c2cc1OC
3. CC(C)(Cc1c[nH]c2ccc(Cl)cc12)NCCOc1ccccc1OCC1CC1
4. COc1cccc2c1CC[C@H]1CN(CCn3c(=O)[nH]c4c(sc5cccnc54)c3=O)C[C@@H]21
5. COc1cc2nc(N(C)CCCNC(=O)C3CCCO3)nc(N)c2cc1OC (stereo not given)

result:
[9, 8.72, 9.22, 9.66, 8]

For each listed entry, give its pK.
1. CCCC(=O)N1CCCN(c2nc(N)c3cc(OC)c(OC)cc3n2)CC1
2. C=Cc1sc2ccc(Cl)c3c2c1CN(C)CC3
3. Cc1c[nH]c(=O)n(CCCN2CCN(c3ccc(F)cc3OCC(F)(F)F)CC2)c1=O

result:
9.3
7.36
9

---

experiment: Binding affinity for alpha 1d adrenoceptor
Give measured pK for each item. Keep answers brief.
Answers are plain numbers.

                                   compound  recordedmeasurement
0  COc1ccccc1N1CCN(CCCCN2C(=O)c3ccccc3C2=O)CC1                  9.1
1  Cc1c[nH]c(=O)n(CCCN2CCN(c3ccc(F)cc3OCC(F)(F)F)CC2)c1=O                    7
2  CC1=C(C(N)=O)[C@H](c2ccc([N+](=O)[O-])cc2)C(C(=O)NCCCCN2CCC(c3ccccc3)(c3ccccc3)CC2)=C(C)N1                  6.4
3             C=Cc1sc2ccc(Cl)c3c2c1CN(C)CC3                 8.28
4  COc1ccccc1N1CCN(CCN(C(=O)C2CCCCC2)c2ccccn2)CC1                  7.2

For each listed entry, give its pK.
1. COc1c(C)c(C)c(O)c(C)c1CN(C)CCOc1cc(C)c(O)cc1C(C)C
2. COc1cc2nc(N3CCN(C(=O)C4CCCO4)CC3)nc(N)c2cc1OC (stereo unspecified)
3. O=C(NC1CCN(CCc2c[nH]c3ccccc23)CC1)c1ccccc1
4. COc1cccc(OC)c1OCCNCC1COc2ccccc2O1 (stereo unspecified)
5. COc1ccccc1N1CCN(CCN2C(=O)CC3(CCCC3)CC2=O)CC1
6. COc1cc2c(cc1O)C1Cc3ccc(OC)c(O)c3CN1CC2 (stereo unspecified)

result:
1: 8.92; 2: 8.6; 3: 6.8; 4: 9.6; 5: 8.2; 6: 7.6

---

Give measured pK for each item. Keep answers brief.
experiment: Binding affinity for alpha 1d adrenoceptor
Answers are plain numbers.

Some molecules with known pK results, for comparison:
>>> print(df.to_string())
                                   molecule  recordedmeasurement
0  COc1ccccc1N1CCN(CCCNc2c(C)c(=O)n(C)c(=O)n2C)CC1                    8
1  COC(=O)C1=C(C)NC(C)=C(C(=O)NCCCN2CCC(c3ccccc3)(c3ccccc3)CC2)C1c1ccc([N+](=O)[O-])cc1 (centres undefined)                 7.18
2        Cc1ccc(N(CC2=NCCN2)c2cccc(O)c2)cc1                  8.1
3  C[C@H](Cc1cc2c(c(C(N)=O)c1)N(CCCO)CC2)NCCOc1ccccc1OCC(F)(F)F                  8.7
4  COc1cc2nc(N(C)CCCNC(=O)C3CCCO3)nc(N)c2cc1OC (centres undefined)                  8.5
5  COc1cc2c(cc1OC)CN(c1cc(N)c3cc(OC)c(OC)cc3n1)CC2                 10.4

For each listed entry, give its pK.
1. CCCC(=O)N1CCCN(c2nc(N)c3cc(OC)c(OC)cc3n2)CC1
2. COc1cc2nc(N3CCN(C(=O)c4ccco4)[C@H]4CCCC[C@H]43)nc(N)c2cc1OC
3. COc1cccc(OC)c1OCCNCC1CSc2ccccc2O1 (centres undefined)
4. COc1cccc2c1CC[C@H]1CN(CCn3c(=O)[nH]c4c(sc5cccnc54)c3=O)C[C@@H]21
5. COc1ccccc1N1CCN(CCCNC(=O)c2cccc3c(=O)c(C)c(-c4ccccc4)oc23)CC1

result:
1: 9; 2: 8.49; 3: 9.4; 4: 9.01; 5: 8.6

For each listed entry, give its pK.
1. CCC1=C(C(N)=O)[C@H](c2ccc([N+](=O)[O-])cc2)C(C(=O)NCCCN2CCC(c3ccccc3)(c3ccccc3)CC2)=C(COCCN)N1
2. COC(=O)C1=C(C)NC(C)=C(C(=O)OCCCN2CCC(c3ccccc3)(c3ccccc3)CC2)[C@H]1c1cccc([N+](=O)[O-])c1
3. O=C(CCCN1CCC2(CC1)C(=O)NCN2c1ccccc1)c1ccc(F)cc1
4. COC(=O)[C@H]1[C@H]2C[C@H]3c4[nH]c5ccccc5c4CCN3C[C@@H]2CC[C@@H]1O
5. COc1cc2nc(N3CCN(C(=O)COc4c(OC)cccc4C(C)C)CC3)nc(N)c2cc1OC
6. CC(C)(Cc1c[nH]c2ccc(Cl)cc12)NCCOc1ccccc1OCC1CC1
7. COc1cc2nc(N3CCN(C(=O)C4COc5ccccc5O4)CC3)nc(N)c2cc1OC (centres undefined)
8. C[C@H](CN1CCN(c2cc(F)c(F)cc2F)CC1)N1C(=O)CC2(CCCC2)CC1=O

result:
6.4
7
7.89
6.6
8.59
7.8
8.4
8.8

---

Give measured pK for each item. Keep answers brief.
test: Binding affinity for alpha 1b adrenoceptor
Give bare numbers.

Some molecules with known pK results, for comparison:
>>> df
                                   molecule  property  recordedmeasurement
0  COc1cc2nc(N3CCN(C(=O)c4ccco4)[C@H]4CCCC[C@H]43)nc(N)c2cc1OC        pK                 9.89
1  COc1cc2c(cc1O)C1Cc3ccc(OC)c(O)c3CN1CC2 (configuration not stated)        pK                 6.44
2  COC(=O)[C@H]1[C@H]2C[C@H]3c4[nH]c5ccccc5c4CCN3C[C@@H]2CC[C@@H]1O        pK                 6.29
3  COc1cc2c(cc1OC)CN(c1cc(N)c3cc(OC)c(OC)cc3n1)CC2        pK                 10.1
4  COc1cc2nc(N(C)CCCNC(=O)C3CCCO3)nc(N)c2cc1OC (configuration not stated)        pK                    8

For each listed entry, give its pK.
1. O=C(CCCN1CCC2(CC1)C(=O)NCN2c1ccccc1)c1ccc(F)cc1
2. COC(=O)C1=C(C)NC(C)=C(C(=O)OCCCN2CCC(c3ccccc3)(c3ccccc3)CC2)[C@H]1c1cccc([N+](=O)[O-])c1

result:
9.3
7.26
